test system: HCC-2998 colon; experiment: NCI tumour cell line growth inhibition, 48 h
For each of the compounds below, state its GI50.

>  <COMPOUND>
Cc1nn2c(/C=C3\C(=O)Nc4ccccc43)c(C)nc2s1

>  <SYSTEM>
HCC-2998 colon

>  <RESULT>
13.7 µM

$$$$
>  <COMPOUND>
O=C(c1ccccc1)c1ccccc1C(=O)c1ccccc1

>  <SYSTEM>
HCC-2998 colon

>  <RESULT>
32.3 µM

$$$$
>  <COMPOUND>
COc1cc(CNC(=O)CCSc2nc3ccccc3c(=O)n2Cc2cc(OC)c(OC)c(OC)c2)cc(OC)c1OC

>  <SYSTEM>
HCC-2998 colon

>  <RESULT>
13 µM

$$$$
>  <COMPOUND>
CC1(C)N=C(N)N=C(N)N1c1ccc(OCCCCNC(=O)c2ccc(S(=O)(=O)F)cc2)c(Cl)c1

>  <SYSTEM>
HCC-2998 colon

>  <RESULT>
35 µM

$$$$
>  <COMPOUND>
CCC1(CC)C(=O)[N-]C(=O)[N-]C1=O.[Au+].[Au+].c1ccc([PH+](c2ccccc2)c2ccccc2)cc1.c1ccc([PH+](c2ccccc2)c2ccccc2)cc1

>  <SYSTEM>
HCC-2998 colon

>  <RESULT>
1.98 µM

$$$$
>  <COMPOUND>
O=c1[nH]cnc2nc(-c3ccc(N(CCCl)CCCl)cc3)[nH]c12

>  <SYSTEM>
HCC-2998 colon

>  <RESULT>
4.76 µM

$$$$
>  <COMPOUND>
CN1N=Nc2c(C(F)(F)F)nn(-c3ccccc3)c2N(C)C1=O

>  <SYSTEM>
HCC-2998 colon

>  <RESULT>
> 100 µM

$$$$
>  <COMPOUND>
O[C@H](CN1CC1)[C@@H](O)CN1CC1

>  <SYSTEM>
HCC-2998 colon

>  <RESULT>
13.8 µM

$$$$

Each of the following entries comes with a recorded value; kindly state GI50 for each.
1. O=C(Nc1ccc(-c2ccnc(Nc3ccc(N4CCOCC4)cc3)n2)cc1)C1CCCN1 (centres undefined)
2. CN(C)CCNc1c2c(c(NCCN(C)C)c3c(CO)c[nH]c13)C(=O)c1ccccc1C2=O
3. O=C(Nc1cccc([N+](=O)[O-])c1)c1cc2ccccc2cc1O

Result:
["11.3 µM", "1.43 µM", "2.16 µM"]

====

test system: NCI-H23 lung; experiment: NCI tumour cell line growth inhibition, 48 h
MEASURED ENDPOINT: TGI

>  <COMPOUND>
Cc1ccc(C)c2c1CCc1cc3ccccc3nc1-2

>  <SYSTEM>
NCI-H23 lung

>  <RESULT>
> 100 µM

$$$$
>  <COMPOUND>
O=C(NCc1ccccc1)c1c(O)c2ccccc2[nH]c1=O

>  <SYSTEM>
NCI-H23 lung

>  <RESULT>
> 100 µM

$$$$
>  <COMPOUND>
OC(O)(C(F)(F)F)C(F)(F)F

>  <SYSTEM>
NCI-H23 lung

>  <RESULT>
> 100 µM

$$$$
>  <COMPOUND>
CC(=O)Nc1ccc(/C=C(\NC(=O)c2ccccc2)C(=O)NNS(=O)(=O)c2ccc(C)cc2)cc1

>  <SYSTEM>
NCI-H23 lung

>  <RESULT>
> 100 µM

$$$$
>  <COMPOUND>
O=C1C(=Cc2ccccc2[N+](=O)[O-])N=C(c2ccccc2)N1n1c(-c2ccccc2)nc2ccccc2c1=O

>  <SYSTEM>
NCI-H23 lung

>  <RESULT>
65 µM

$$$$
>  <COMPOUND>
c1ccc2c(c1)c1c3n2-c2cc(on2)C3CCC1 (centres undefined)

>  <SYSTEM>
NCI-H23 lung

>  <RESULT>
> 100 µM

$$$$
>  <COMPOUND>
CC(=O)Nc1cc2cc(NS(=O)(=O)c3cc(C(F)(F)F)cc(C(F)(F)F)c3)ccc2oc1=O

>  <SYSTEM>
NCI-H23 lung

>  <RESULT>
> 100 µM

$$$$
>  <COMPOUND>
CCOC(=O)c1cc(-c2ccn(C(C)=O)c2)c(-c2cc(C)co2)[nH]1

>  <SYSTEM>
NCI-H23 lung

>  <RESULT>
> 100 µM

$$$$
>  <COMPOUND>
CCCC(=O)Nc1cc(/C=C/C(=O)N2C[C@H]3C[C@@]34C2=CC(=O)c2[nH]cc(C)c24)n(C)c1

>  <SYSTEM>
NCI-H23 lung

>  <RESULT>
0.00558 µM

$$$$
>  <COMPOUND>
O=C1OC2C=CC1C1(CCOC1=O)C2 (centres undefined)

>  <SYSTEM>
NCI-H23 lung

>  <RESULT>
> 100 µM

$$$$

Provide reported TGI for each item, in the same order as listed.
1. Nc1ccc(-c2nc3ccccc3s2)cc1
2. COc1cc(-c2[o+]c3cc(O)cc(OC4OC(CO)C(O)C(O)C4O)c3cc2OC2OC(CO)C(O)C(O)C2O)cc(OC)c1O (centres undefined)

Result:
1. 43.1 µM
2. > 100 µM

Source: PubChem BioAssay (NCI)
